system: 297/C5/0 cells; type: cell-based, human; details: 297/C5/0 (EpoA selected), 72 hrs, average of three experiments
REPORTED ENDPOINT: RF (resistance factor: IC50 resistant cell line / IC50 parental KB-31)

| COMPOUND | RESULT |
| --- | --- |
| C/C(=C\c1csc(C)n1)[C@@H]1C[C@@H]2O[C@@H]2CCC[C@H](C)[C@H](O)[C@@H](C)C(=O)C(C)(C)[C@@H](O)CC(=O)O1 [Epothilone A, epothilone A] | 44.7 |
| COc1cccc2c1C(=O)c1c(O)c3c(c(O)c1C2=O)C[C@@](O)(C(=O)CO)C[C@@H]3O[C@H]1C[C@H](N)[C@H](O)[C@H](C)O1 [Doxorubicin, doxorubicin] | 1.6 |
| C/C(=C\c1csc(C)n1)[C@@H]1C[C@@H]2O[C@]2(C)CCC[C@H](C)[C@H](O)[C@@H](C)C(=O)C(C)(C)[C@@H](O)CC(=O)O1 [Epothilone B, epothilone B] | 7.7 |
| O=c1[nH]cc(F)c(=O)[nH]1 [5-FU, 5-Fluorouracil] | 1.2 |
| CC(=O)O[C@H]1C(=O)[C@@]2(C)[C@H]([C@H](OC(=O)c3ccccc3)[C@]3(O)C[C@H](OC(=O)[C@H](O)[C@@H](NC(=O)c4ccccc4)c4ccccc4)C(C)=C1C3(C)C)[C@]1(OC(C)=O)CO[C@@H]1C[C@@H]2O [Paclitaxel, paclitaxel] | 98.3 |

These measurements were taken from patent US20070134744A1.
